The entries below are paired with their reported Emax.
target: p53 Y220C (Homo sapiens, UniProt P04637, Y220C); assay: Luciferase Reporter Assay (Luc), p53 response element, NClH1299 cells with inducible p53 Y220C; type: cell-based; conditions: Emax; luciferase reporter, NClH1299 inducible p53 Y220C, 6 hour

// below: answered molecules
COc1nc(P(C)(C)=O)ncc1NCC#Cc1cc2c(N[C@@H]3CCN(C)C[C@@H]3F)cccn2c1SC(F)(F)F; > 90%
CNC(=O)c1ccc(OC)c(NCC#Cc2cc3c(N[C@@H]4CCN(C)C[C@@H]4F)nccn3c2SC(F)F)c1; > 90%
O=C(N[C@H]1C[C@H](O)C1)c1ccc(NCC#Cc2cc3c(N[C@@H]4CCNC[C@@H]4F)cccn3c2SC(F)(F)F)cc1; 80 to 90%
CN1CC[C@@H](Nc2cccn3c(SC(F)(F)F)c(C#CCNc4ccc(C(=O)N5CC(C)(O)C5)cc4)cc23)[C@@H](F)C1; > 90%

In: Entry under review: `CNC(=O)c1cnc(OC)c(NCC#Cc2nc3c(N[C@@H]4CNC[C@@H]4F)cccn3c2SC(F)(F)F)c1` . Reported Emax?
Out: 80 to 90%

In: State the recorded Emax for this entry: `COc1cc(C(=O)NC[C@@H](O)CO)ccc1NCC#Cc1cc2c(N[C@@H]3CCN(C)C[C@@H]3F)cccn2c1SC(F)(F)F`
Out: > 90%

In: Dear colleague, I am looking for the recorded Emax of the following molecule: `CNC(=O)c1ccc(NCC#Cc2nc3c(N[C@@H]4CCN(C)C[C@@H]4F)cccn3c2SC(F)(F)F)c(Cl)c1`
Out: > 90%

Reference source for all entries: patent US20260374766A1
